Hey, just so you know, these numbers are from ChEMBL document CHEMBL1201862.

These records show GI50 for HCT-15.

{"Molecule": "COP(=O)(OC)/C(=C\\C1=CN(C(c2ccccc2)(c2ccccc2)c2ccccc2)CN1)NC=O", "GI50": "16.6 µM"}
{"Molecule": "CC(C)C1OCC(CO)CO1 (stereo not drawn)", "GI50": "> 100 µM"}
{"Molecule": "OCC1OC(n2nc(-c3ccccc3)nc2-c2cnccn2)C(O)C(O)C1O (stereo not drawn)", "GI50": "> 100 µM"}

---

System: HCT-15
Square brackets hold non-standard residues; d marks the D form. Peptide text beside a SMILES is read from it. * marks the point of attachment. ξ: configuration not given here. NMeN = CN[C@@H](CC(N)=O)C(=O)O; NMeV = CN[C@H](C(=O)O)C(C)C; ξNMeV = CNC(C(=O)O)C(C)C; Boc = CC(C)(C)OC(=O)*; ξNMeA = CNC(C)C(=O)O

{"Compound": "NNC1=Nc2ccc(Cl)cc2C(=S)N2CSCC12 (centres undefined)", "Measurement Units": "µM", "Reported Relation": ">", "GI50": 100}
{"Compound": "CC(C)C(=O)OCC1OC(n2c(Br)nc3c(=O)[nH]c(N)nc32)C(OC(=O)C(C)C)C1OC(=O)C(C)C (centres undefined)", "Measurement Units": "µM", "Reported Relation": ">", "GI50": 100}
{"Compound": "COc1cc(/C=C2\\CCC(C)(CN(C)C)C2=O)cc(OC)c1OC (centres undefined)", "Measurement Units": "µM", "Reported Relation": ">", "GI50": 100}
{"Compound": "C=C(C)C(=O)OC1C(C(C)CCCO)=C(CO)CC2OC(=O)C(=C)C21 (centres undefined)", "Measurement Units": "µM", "Reported Relation": "=", "GI50": 13.3}
{"Compound": "C[n+]1c(/C=C/c2ccc(O)c3ncccc23)[se]c2ccccc21", "Measurement Units": "µM", "Reported Relation": "=", "GI50": 0.631}
{"Compound": "CCC1CCN/C(=N/S(=O)(=O)c2cc(C)c(Cl)cc2S)N1 (centres undefined)", "Measurement Units": "µM", "Reported Relation": "=", "GI50": 38.5}
{"Compound": "CCOC(=O)c1c(-c2ccc(Br)cc2)ccn1C", "Measurement Units": "µM", "Reported Relation": ">", "GI50": 10}
{"Compound": "CC1C=C(OC(=O)c2ccccc2)C(=O)C(n2cc(F)c(=O)n(C(=O)c3ccccc3)c2=O)O1 (centres undefined)", "Measurement Units": "µM", "Reported Relation": "=", "GI50": 32.5}
{"Compound": "COc1cc(/C=N/N=C(\\N)NO)cc(OC)c1OC", "Measurement Units": "µM", "Reported Relation": "=", "GI50": 28.6}
{"Compound": "Cc1cc(O)c(C(C)C)cc1C(=S)Nc1ccc(Cl)cc1", "Measurement Units": "µM", "Reported Relation": "=", "GI50": 10.7}
{"Compound": "C[N+](C)(C)CC1CCc2ccccc2C1=O (centres undefined)", "Measurement Units": "µM", "Reported Relation": "=", "GI50": 3.04}
{"Compound": "Cn1cc(NC(=O)Nc2cc(C(=O)Nc3cc(C(=O)Nc4ccc5cc(S(=O)(=O)O)cc(S(=O)(=O)O)c5c4)n(C)c3)n(C)c2)cc1C(=O)Nc1cc(C(=O)Nc2ccc3cc(S(=O)(=O)O)cc(S(=O)(=O)O)c3c2)n(C)c1", "Measurement Units": "µM", "Reported Relation": ">", "GI50": 100}
{"Compound": "c1ccc2c(c1)ncn2CCn1ccnc1", "Measurement Units": "µM", "Reported Relation": ">", "GI50": 100}
{"Compound": "CC1(C)CCc2cc3c(cc2O1)OC(C)(C)C1c2c(ccc4c2CCC(C)(C)O4)OC31 (centres undefined)", "Measurement Units": "µM", "Reported Relation": ">", "GI50": 100}
{"Compound": "COc1cc(C(C)c2cc3c(cc2OCCCCOc2cc4c(cc2C(C)c2cc(OC)c(OC)c(OC)c2)OCO4)OCO3)cc(OC)c1OC (centres undefined)", "Measurement Units": "µM", "Reported Relation": "=", "GI50": 34.8}
{"Compound": "Cn1cc(-c2ccc3c4ccccc4n(C)c3c2)c2ccccc21", "Measurement Units": "µM", "Reported Relation": "=", "GI50": 36.6}
{"Compound": "CC(=O)O[C@H]1[C@@H](N2CCOCC2)C[C@H]2[C@@H]3CC=C4C[C@@H](N5CCCC5)CC[C@]4(C)[C@H]3CC[C@@]21C", "Measurement Units": "µM", "Reported Relation": ">", "GI50": 100}
{"Compound": "O=C(Nc1ccc2c(c1)oc(=O)c1ccccc12)C(Cl)Cl", "Measurement Units": "µM", "Reported Relation": "=", "GI50": 71.1}
{"Compound": "CCCCCC[C@H]1C(=O)O[C@H](C)[C@H](NC(=O)c2cccc(NC=O)c2OC)C(=O)O[C@@H](C)[C@@H]1OC(=O)C(C)CC.CCCCCC[C@H]1C(=O)O[C@H](C)[C@H](NC(=O)c2cccc(NC=O)c2OC)C(=O)O[C@@H](C)[C@@H]1OC(=O)CC(C)C (some centres undefined)", "Measurement Units": "µM", "Reported Relation": "=", "GI50": 14.7}
{"Compound": "CCCCCCCCCCOC(=O)c1cc[n+](C)cc1", "Measurement Units": "µM", "Reported Relation": "=", "GI50": 15.9}
{"Compound": "CN1N=C(c2ccncc2)OC1c1cccc(F)c1 (centres undefined)", "Measurement Units": "µM", "Reported Relation": ">", "GI50": 100}
{"Compound": "Cc1ccc2c(c1)Nc1ccccc1P2(=O)O", "Measurement Units": "µM", "Reported Relation": ">", "GI50": 100}
{"Compound": "CCCCCCCCSC1=C(Cl)C(=O)C(OC)=C(OC)C1=O", "Measurement Units": "µM", "Reported Relation": "=", "GI50": 6.34}
{"Compound": "C=CCOCn1ccc(NC(=O)c2ccccc2)nc1=O", "Measurement Units": "µM", "Reported Relation": ">", "GI50": 100}
{"Compound": "N#Cc1cccc(/C=N/C23CC4CC(CC(C4)C2)C3)c1", "Measurement Units": "µM", "Reported Relation": ">", "GI50": 100}
{"Compound": "C=C(C)C(O)C(O)C[C@@H](C)C1CC[C@]23C[C@]12CCC1[C@@]2(C)CCC(OC(C)=O)C(C)(C)C2CC(OC2OC(CO)C(O)C(O)C2O)[C@]13C (some centres undefined)", "Measurement Units": "µM", "Reported Relation": "=", "GI50": 40.9}
{"Compound": "Cc1noc2nnn(-c3ccc(Cl)cc3)c(=O)c12", "Measurement Units": "µM", "Reported Relation": "=", "GI50": 2.31}
{"Compound": "C=C1C(=O)OCC2C(C(=O)O)=CC3C(C)C(C)=CC123 (centres undefined)", "Measurement Units": "µM", "Reported Relation": "=", "GI50": 11}
{"Compound": "CC1(C)[C@@H](Cn2nnc3c(N)ncnc32)CC[C@@]1(C)CO", "Measurement Units": "µM", "Reported Relation": ">", "GI50": 100}
{"Compound": "COC(=O)c1c(C)[nH]c2c1cc(O)c1nc(C)c(C)nc12", "Measurement Units": "µM", "Reported Relation": ">", "GI50": 100}
{"Compound": "O=C(CCN1CCOCC1)c1ccc(Oc2ccc(F)cc2)cc1", "Measurement Units": "µM", "Reported Relation": "=", "GI50": 19}
{"Compound": "NCc1cccc(O)c1O", "Measurement Units": "µM", "Reported Relation": ">", "GI50": 100}
{"Compound": "O=[N+]([O-])c1ccc(/C(=C\\c2ccccc2)Cn2ccnc2)cc1", "Measurement Units": "µM", "Reported Relation": "=", "GI50": 30.2}
{"Compound": "COC(=O)/C=C1\\CCC(C)O1 (centres undefined)", "Measurement Units": "µM", "Reported Relation": ">", "GI50": 100}
{"Compound": "COC(=O)C(C)N(C)C(=O)[C@H](CC(N)=O)N(C)C(=O)[C@@H]1CCCN1C(=O)[C@H](C(C)C)N(C)C(=O)C(C(C)C)N(C)C(=O)[C@@H](NC(=O)OC(C)(C)C)C(C)C (some centres undefined) (Boc-V[ξNMeV][NMeV]P[NMeN][ξNMeA]-OMe)", "Measurement Units": "µM", "Reported Relation": ">", "GI50": 100}
{"Compound": "O=C(/C=C/c1ccccc1O)c1cccs1", "Measurement Units": "µM", "Reported Relation": ">", "GI50": 100}
{"Compound": "CCC1(c2ccccc2)Sc2ccccc2-n2cccc2C1=O (centres undefined)", "Measurement Units": "µM", "Reported Relation": "=", "GI50": 8.79}
{"Compound": "COc1ccccc1N1CCN(CCCN2C(C(=O)c3ccccc3)=C(O)c3c(C)cc(C)nc3S2(=O)=O)CC1", "Measurement Units": "µM", "Reported Relation": "=", "GI50": 56.6}
{"Compound": "COc1cccc(-c2cc(=O)c3cc(N4CCCCC4)ccc3[nH]2)c1", "Measurement Units": "µM", "Reported Relation": "<", "GI50": 0.0167}
